# Protocol: Microsomal stability assay, mouse liver microsomes
# Format: in vitro ADME
# Cond: pH 7.4, mouse liver microsomes, 1 µM compound, NADPH, read-out: Phase I metabolic stability t1/2, MLM
Parameter: half-life at 1 µM (min)
Give just the numeric value; min need not be written.

So what's the measured half-life at 1 µM for this one? `O=C(Cn1c(=O)[nH]c2ccccc2c1=O)N[C@@H](Cc1ccccc1)C(=O)N1CCC[C@H]1C(=O)Nc1ccccc1` 2.9

----------
# Test system: HIV-1NL4-3
# Protocol: Anti-HIV-1 assay in TZM-GFP cells (LTR-activated GFP expression)
# Cond: Human immunodeficiency virus 1, 48 h, read-out: EC50 (concentration of compound inhibiting HIV-1 replication by 50%)
pEC50: −log10 of the molar value.
Parameter: pEC50

Use the examples below as a reference point.
1. O=C(Cn1c(=O)[nH]c2ccccc2c1=O)N[C@@H](CSCc1ccccc1)C(=O)N1CCC[C@H]1C(=O)Nc1ccccc1 [Compound 8]	< 4.70
2. Cc1ccc(NNC(=O)Cn2c(S)nnc2-c2cccc3ccccc23)cc1 [Compound 37]	< 4.70

Proceeding to the next compound to report its pEC50.
So what's the measured pEC50 for this one? CN(NC(=O)Cn1c(S)nnc1-c1ccccc1)c1ccccc1 [Compound 39] < 4.70

----------
CC50 at 72 h by entry:
# Protocol: in vitro
# Assay type: cell-based
# Cond: human, TZM-GFP cells, 72 h, XTT; mean ± standard deviation; read-out: CC50 (concentration of compound causing 50% cell death)

1) O=C(Cn1c(S)nnc1-c1cccc2ccccc12)NNc1ccccc1	> 100 µM

So what's the measured CC50 at 72 h for this one? `N#Cc1ccc(NNC(=O)Cn2c(S)nnc2-c2ccccc2)cc1` > 100 µM

----------
# System: HIV-1NL4-3
# Protocol: Anti-HIV-1 assay in TZM-GFP cells (LTR-activated GFP expression)
# Cond: Human immunodeficiency virus 1, 48 h, read-out: EC50 (concentration of compound inhibiting HIV-1 replication by 50%)
pEC50: −log10 of the molar value.
Parameter: pEC50

Use the examples below as a reference point.
1) Cc1ccc(-c2nnc(S)n2CC(=O)NNc2ccccn2)cc1	< 4.70
2) Cc1ccc(-c2nnc(S)n2CC(=O)NNc2ccccc2)cc1	< 4.70
3) COC(=O)[C@@H]1CCCN1C(=O)[C@H](Cc1cccc2cc[nH]c12)NC(=O)Cn1c(=O)[nH]c2ccccc2c1=O	< 4.70
4) COC(=O)[C@@H]1CCCN1C(=O)CNC(=O)Cn1c(=O)[nH]c2ccccc2c1=O	< 4.70
5) Cc1ccc(-c2nnc(S)n2CC(=O)NNc2ccc(C#N)cc2)cc1	< 4.70

So what's the measured pEC50 for this one? `CN(C(=O)[C@H](Cc1ccccc1)NC(=O)Cn1c(=O)[nH]c2ccccc2c1=O)c1ccccc1` 5.16

Also need `COC(=O)[C@@H]1CCCN1C(=O)[C@H](CSCc1ccccc1)NC(=O)Cn1c(=O)[nH]c2ccccc2c1=O` , thanks. < 4.70

Also need `O=C(Cn1c(S)nnc1-c1ccccc1)NNc1ccc(F)cc1` , thanks. < 4.70

Also need `O=C(Cn1c(S)nnc1-c1cccc2ccccc12)NNc1ccccc1` , thanks. < 4.70

Also need Cc1[nH]c2ccccc2c1CC(=O)N[C@@H](Cc1ccccc1)C(=O)N(C)c1ccccc1 [Compound 1, PF74, reference compound] , thanks. 6.21

Also need `O=C(Cn1c(S)nnc1-c1ccccc1)NNc1ccc(-c2ccccc2)cc1` , thanks. < 4.70

Also need `Cc1ccc(NNC(=O)Cn2c(S)nnc2-c2ccccc2C)cc1` , thanks. < 4.70

Also need `O=C(Cn1c(=O)[nH]c2ccccc2c1=O)N[C@@H](Cc1ccccc1)C(=O)N1CCC[C@H]1C(=O)Nc1ccccc1` , thanks. 5.80

----------
# Protocol: in vitro
# Format: cell-based
# Cond: human, TZM-GFP cells, 72 h, XTT; mean ± standard deviation; read-out: CC50 (concentration of compound causing 50% cell death)
Parameter: CC50 at 72 h

1. CN(NC(=O)Cn1c(S)nnc1-c1ccccc1)c1ccccc1 [Compound 39]	> 50 µM
2. COC(=O)[C@@H]1CCCN1C(=O)CNC(=O)Cn1c(=O)[nH]c2ccccc2c1=O [Compound 3]	> 100 µM
3. Cc1ccc(-c2nnc(S)n2CC(=O)NNc2ccccn2)cc1 [Compound 31]	> 100 µM
4. COC(=O)C1CCCN1C(=O)C(NC(=O)Cn1c(=O)[nH]c2ccccc2c1=O)C(C)C (stereo not shown) [Compound 2]	> 100 µM

So what's the measured CC50 at 72 h for this one? Cc1ccc(-c2nnc(S)n2CC(=O)NNc2ccccc2)cc1 [Compound 27] ~100 µM

Also need Cc1ccc(NNC(=O)Cn2c(S)nnc2-c2ccccc2C)cc1 [Compound 33] , thanks. > 100 µM

Also need O=C(Cn1c(S)nnc1-c1ccccc1)NNc1ccc(-c2ccccc2)cc1 [Compound 36] , thanks. > 100 µM
